Provide the reported MIC90 of each item.
system: Pseudomonas aeruginosa; experiment: Antimicrobial activity against Pseudomonas aeruginosa 1957-00; assay type: functional
Number in µg/mL, nothing else.

Need MIC90, item CC(C)(O/N=C(\C(=O)N[C@H]1CN(C(=O)NS(=O)(=O)n2nc(-c3cc(=O)c(O)c[nH]3)n(C[C@@H](O)CO)c2=O)C1=O)c1csc(N)n1)C(=O)O
0.06

Also C[C@@H](O)[C@H]1C(=O)N2C(C(=O)O)=C(S[C@@H]3CN[C@H](C(=O)N(C)C)C3)[C@H](C)[C@H]12 [MEROPENEM] , if possible.
0.125

Also C[C@H]1[C@H](NC(=O)/C(=N\OC(C)(C)C(=O)O)c2csc(N)n2)C(=O)N1C(=O)NS(=O)(=O)n1nc(-c2cc(=O)c(O)c[nH]2)n(C)c1=O , if possible.
0.125

Also C[C@H]1[C@H](NC(=O)/C(=N\OC(C)(C)C(=O)O)c2csc(N)n2)C(=O)N1C(=O)NS(=O)(=O)n1nc(-c2cc(=O)c(O)c[nH]2)n(CC(N)=O)c1=O , if possible.
0.125

Also C[C@H]1[C@H](NC(=O)/C(=N\OC(C)(C)C(=O)O)c2csc(N)n2)C(=O)N1C(=O)NS(=O)(=O)n1nc(-c2cc(=O)c(O)c[nH]2)n(C[C@@H](O)CO)c1=O , if possible.
0.03

Also CC1(C)[C@H](NC(=O)/C(=N\OCc2cc(=O)c(O)cn2O)c2csc(N)n2)C(=O)N1OS(=O)(=O)O , if possible.
0.25

Also C[C@H](O)Cn1c(-c2cc(=O)c(O)c[nH]2)nn(S(=O)(=O)NC(=O)N2C(=O)[C@@H](NC(=O)/C(=N\OC(C)(C)C(=O)O)c3csc(N)n3)[C@@H]2C)c1=O , if possible.
0.06

====

system: Pseudomonas aeruginosa; experiment: Antimicrobial activity against Pseudomonas aeruginosa 1523-08; type: functional
Provide the reported MIC90 of each item.
Number in µg/mL, nothing else.

Need MIC90, item C[C@@H](O)[C@H]1C(=O)N2C(C(=O)O)=C(S[C@@H]3CN[C@H](C(=O)N(C)C)C3)[C@H](C)[C@H]12
64

Also C[C@H]1[C@H](NC(=O)/C(=N\OC(C)(C)C(=O)O)c2csc(N)n2)C(=O)N1C(=O)NS(=O)(=O)n1nc(-c2cc(=O)c(O)c[nH]2)n(CC(N)=O)c1=O , if possible.
0.25

Also C[C@H]1[C@H](NC(=O)/C(=N\OC(C)(C)C(=O)O)c2csc(N)n2)C(=O)N1C(=O)NS(=O)(=O)n1nc(-c2cc(=O)c(O)c[nH]2)n(C)c1=O , if possible.
0.5

Also C[C@H]1[C@H](NC(=O)/C(=N\OC(C)(C)C(=O)O)c2csc(N)n2)C(=O)N1C(=O)NS(=O)(=O)n1nc(-c2cc(=O)c(O)c[nH]2)n(C[C@@H](O)CO)c1=O , if possible.
0.125

====

test system: Pseudomonas aeruginosa; test: Antimicrobial activity against Pseudomonas aeruginosa 1513-08; assay type: functional
Provide the reported MIC90 of each item.
Number in µg/mL, nothing else.

For Pseudomonas aeruginosa, provide MIC90 of C[C@H]1[C@H](NC(=O)/C(=N\OC(C)(C)C(=O)O)c2csc(N)n2)C(=O)N1C(=O)NS(=O)(=O)n1nc(-c2cc(=O)c(O)c[nH]2)n(C[C@@H](O)CO)c1=O please.
0.25

Also C[C@H]1[C@H](NC(=O)/C(=N\OC(C)(C)C(=O)O)c2csc(N)n2)C(=O)N1C(=O)NS(=O)(=O)n1nc(-c2cc(=O)c(O)c[nH]2)n(C)c1=O , if possible.
1

Also CC1(C)[C@H](NC(=O)/C(=N\OCc2cc(=O)c(O)cn2O)c2csc(N)n2)C(=O)N1OS(=O)(=O)O , if possible.
1

Also C[C@H]1[C@H](NC(=O)/C(=N\OC(C)(C)C(=O)O)c2csc(N)n2)C(=O)N1C(=O)NS(=O)(=O)n1nc(-c2cc(=O)c(O)c[nH]2)n(CC(N)=O)c1=O , if possible.
0.5

Also C[C@H](O)Cn1c(-c2cc(=O)c(O)c[nH]2)nn(S(=O)(=O)NC(=O)N2C(=O)[C@@H](NC(=O)/C(=N\OC(C)(C)C(=O)O)c3csc(N)n3)[C@@H]2C)c1=O , if possible.
0.5

Also CC(C)(O/N=C(\C(=O)N[C@H]1CN(C(=O)NS(=O)(=O)n2nc(-c3cc(=O)c(O)c[nH]3)n(C[C@@H](O)CO)c2=O)C1=O)c1csc(N)n1)C(=O)O , if possible.
0.5

Also C[C@@H](O)[C@H]1C(=O)N2C(C(=O)O)=C(S[C@@H]3CN[C@H](C(=O)N(C)C)C3)[C@H](C)[C@H]12 [MEROPENEM] , if possible.
32

====

test system: Pseudomonas aeruginosa; experiment: Antimicrobial activity against Pseudomonas aeruginosa 1569-05; assay type: functional
METRIC: MIC90 (µg/mL)
Number in µg/mL, nothing else.

Need MIC90, item CC1(C)[C@H](NC(=O)/C(=N\OCc2cc(=O)c(O)cn2O)c2csc(N)n2)C(=O)N1OS(=O)(=O)O
1

Also C[C@H]1[C@H](NC(=O)/C(=N\OC(C)(C)C(=O)O)c2csc(N)n2)C(=O)N1C(=O)NS(=O)(=O)n1nc(-c2cc(=O)c(O)c[nH]2)n(CC(N)=O)c1=O , if possible.
0.25

Also CC(C)(O/N=C(\C(=O)N[C@H]1CN(C(=O)NS(=O)(=O)n2nc(-c3cc(=O)c(O)c[nH]3)n(C[C@@H](O)CO)c2=O)C1=O)c1csc(N)n1)C(=O)O , if possible.
0.25

Also C[C@@H](O)[C@H]1C(=O)N2C(C(=O)O)=C(S[C@@H]3CN[C@H](C(=O)N(C)C)C3)[C@H](C)[C@H]12 [MEROPENEM] , if possible.
0.25

Also C[C@H](O)Cn1c(-c2cc(=O)c(O)c[nH]2)nn(S(=O)(=O)NC(=O)N2C(=O)[C@@H](NC(=O)/C(=N\OC(C)(C)C(=O)O)c3csc(N)n3)[C@@H]2C)c1=O , if possible.
0.25

Also C[C@H]1[C@H](NC(=O)/C(=N\OC(C)(C)C(=O)O)c2csc(N)n2)C(=O)N1C(=O)NS(=O)(=O)n1nc(-c2cc(=O)c(O)c[nH]2)n(C[C@@H](O)CO)c1=O , if possible.
0.25

Also C[C@H]1[C@H](NC(=O)/C(=N\OC(C)(C)C(=O)O)c2csc(N)n2)C(=O)N1C(=O)NS(=O)(=O)n1nc(-c2cc(=O)c(O)c[nH]2)n(C)c1=O , if possible.
0.5

====

tested on: Pseudomonas aeruginosa; experiment: Antimicrobial activity against Pseudomonas aeruginosa 1613-09; format: functional
Provide the reported MIC90 of each item.
Answer as a quantity: numeral, then unit.

Need MIC90, item CC1(C)[C@H](NC(=O)/C(=N\OCc2cc(=O)c(O)cn2O)c2csc(N)n2)C(=O)N1OS(=O)(=O)O
0.5 µg/mL

Also C[C@H](O)Cn1c(-c2cc(=O)c(O)c[nH]2)nn(S(=O)(=O)NC(=O)N2C(=O)[C@@H](NC(=O)/C(=N\OC(C)(C)C(=O)O)c3csc(N)n3)[C@@H]2C)c1=O , if possible.
0.25 µg/mL

Also C[C@H]1[C@H](NC(=O)/C(=N\OC(C)(C)C(=O)O)c2csc(N)n2)C(=O)N1C(=O)NS(=O)(=O)n1nc(-c2cc(=O)c(O)c[nH]2)n(CC(N)=O)c1=O , if possible.
0.5 µg/mL

Also C[C@H]1[C@H](NC(=O)/C(=N\OC(C)(C)C(=O)O)c2csc(N)n2)C(=O)N1C(=O)NS(=O)(=O)n1nc(-c2cc(=O)c(O)c[nH]2)n(C)c1=O , if possible.
0.125 µg/mL

Also C[C@@H](O)[C@H]1C(=O)N2C(C(=O)O)=C(S[C@@H]3CN[C@H](C(=O)N(C)C)C3)[C@H](C)[C@H]12 [MEROPENEM] , if possible.
0.25 µg/mL

Also C[C@H]1[C@H](NC(=O)/C(=N\OC(C)(C)C(=O)O)c2csc(N)n2)C(=O)N1C(=O)NS(=O)(=O)n1nc(-c2cc(=O)c(O)c[nH]2)n(C[C@@H](O)CO)c1=O , if possible.
0.25 µg/mL

Also CC(C)(O/N=C(\C(=O)N[C@H]1CN(C(=O)NS(=O)(=O)n2nc(-c3cc(=O)c(O)c[nH]3)n(C[C@@H](O)CO)c2=O)C1=O)c1csc(N)n1)C(=O)O , if possible.
0.5 µg/mL

====

test system: Pseudomonas aeruginosa; test: Antimicrobial activity against Pseudomonas aeruginosa 1510-08; assay type: functional
METRIC: MIC90 (µg/mL)
Number in µg/mL, nothing else.

Need MIC90, item C[C@H]1[C@H](NC(=O)/C(=N\OC(C)(C)C(=O)O)c2csc(N)n2)C(=O)N1C(=O)NS(=O)(=O)n1nc(-c2cc(=O)c(O)c[nH]2)n(CC(N)=O)c1=O
2

Also CC(C)(O/N=C(\C(=O)N[C@H]1CN(C(=O)NS(=O)(=O)n2nc(-c3cc(=O)c(O)c[nH]3)n(C[C@@H](O)CO)c2=O)C1=O)c1csc(N)n1)C(=O)O , if possible.
8

Also CC1(C)[C@H](NC(=O)/C(=N\OCc2cc(=O)c(O)cn2O)c2csc(N)n2)C(=O)N1OS(=O)(=O)O , if possible.
8

Also C[C@H]1[C@H](NC(=O)/C(=N\OC(C)(C)C(=O)O)c2csc(N)n2)C(=O)N1C(=O)NS(=O)(=O)n1nc(-c2cc(=O)c(O)c[nH]2)n(C)c1=O , if possible.
8

Also C[C@H](O)Cn1c(-c2cc(=O)c(O)c[nH]2)nn(S(=O)(=O)NC(=O)N2C(=O)[C@@H](NC(=O)/C(=N\OC(C)(C)C(=O)O)c3csc(N)n3)[C@@H]2C)c1=O , if possible.
0.5

Also C[C@H]1[C@H](NC(=O)/C(=N\OC(C)(C)C(=O)O)c2csc(N)n2)C(=O)N1C(=O)NS(=O)(=O)n1nc(-c2cc(=O)c(O)c[nH]2)n(C[C@@H](O)CO)c1=O , if possible.
1
